Measured IC50 of individual entries
Test system: HL-60 (promyelocytic leukemia)
Assay: MTT cell proliferation assay, HL-60
Assay type: cell-based
Conditions: Homo sapiens, HL-60, 72 h of exposition, read-out: Anti-proliferative activity IC50, HL-60
Procedure: Tests to determine the effects of the synthesized compounds on cell viability and the half-maximal inhibitory concentration (IC50) were performed using the MTT assay, as described in our prior work. […]
REPORTED_METRIC: IC50 (µM)

compound=O=C(Nc1cccc(C(F)(F)F)c1)c1ccc(C(=O)N2CCN(C(=O)c3ccccc3F)CC2)cc1 units_symbol=µM relation_qualifier=> result_value=50
compound=O=C(Nc1cccc(C(F)(F)F)c1)c1ccc(C(=O)N2CCN(C(=O)c3cccc(F)c3)CC2)cc1 units_symbol=µM relation_qualifier=> result_value=50
compound="CS(=O)(=O)CCNCc1ccc(-c2ccc3ncnc(Nc4ccc(OCc5cccc(F)c5)c(Cl)c4)c3c2)o1 [Lapatinib, reference compound]" units_symbol=µM relation_qualifier== result_value=10.6
compound=Cc1cn(-c2cc(NC(=O)c3cccc(C(=O)Nc4cc([N+](=O)[O-])ccc4C)c3)cc(C(F)(F)F)c2)cn1 units_symbol=µM relation_qualifier=> result_value=50
compound="CNC(=O)c1cc(Oc2ccc(NC(=O)Nc3ccc(Cl)c(C(F)(F)F)c3)cc2)ccn1 [Sorafenib, reference compound]" units_symbol=µM relation_qualifier== result_value=3.37
compound=Cc1cn(-c2cc(NC(=O)c3ccc(C(=O)N4CCN(C(=O)c5cccc(F)c5)CC4)cc3)cc(C(F)(F)F)c2)cn1 units_symbol=µM relation_qualifier== result_value=26
compound="Cc1cn(-c2cc(NC(=O)c3ccc(C)c(Nc4nccc(-c5cccnc5)n4)c3)cc(C(F)(F)F)c2)cn1 [Nilotinib, reference compound]" units_symbol=µM relation_qualifier== result_value=22.7
compound=Cc1cn(-c2cc(NC(=O)c3ccc(C(=O)Nc4cccc(C(F)(F)F)c4)cc3)cc(C(F)(F)F)c2)cn1 units_symbol=µM relation_qualifier=> result_value=50
compound=CNC(=O)c1cc(Oc2ccc(NC(=O)c3cccc(C(=O)Nc4cccc(C(F)(F)F)c4)c3)cc2)ccn1 units_symbol=µM relation_qualifier=> result_value=50
compound=Cc1cn(-c2cc(NC(=O)c3ccc(C(=O)Nc4cc([N+](=O)[O-])ccc4C)cc3)cc(C(F)(F)F)c2)cn1 units_symbol=µM relation_qualifier== result_value=26.4
compound=Cc1cn(-c2cc(NC(=O)c3cccc(C(=O)Nc4cc(-n5cnc(C)c5)cc(C(F)(F)F)c4)c3)cc(C(F)(F)F)c2)cn1 units_symbol=µM relation_qualifier== result_value=35.8
compound=O=C(Nc1cccc(C(F)(F)F)c1)c1cccc(C(=O)N2CCN(C(=O)c3cccc(F)c3)CC2)c1 units_symbol=µM relation_qualifier== result_value=21.9
compound=Cc1cn(-c2cc(NC(=O)c3ccc(C(=O)N4CCN(C(=O)c5ccccc5F)CC4)cc3)cc(C(F)(F)F)c2)cn1 units_symbol=µM relation_qualifier== result_value=26.4
compound=O=C(Nc1cccc(C(F)(F)F)c1)c1cccc(C(=O)N2CCN(C(=O)c3ccccc3F)CC2)c1 units_symbol=µM relation_qualifier== result_value=18.2

* * *

Tested on: K562 cells
Experiment: Annexin V-FITC/PI apoptosis assay
Type: cell-based
Settings: K562, 5 µM, 48 h
Description: K562 tumor cells were plated on a 6-well plate at a density of 400,000 per well. Test compounds 5, 14 and 15 were added at concentrations of 1, 5 and 10 μM in duplicate for 48 h. […] The effects of compounds 5, 14 and 15 on cell apoptosis were examined using the Annexin V-FITC Kit (Beckman Coulter, Brea, CA, USA) according to the protocols provided. […] K562 cells were treated with compound 5, 14 and 15 at 1, 5 and 10 μM for 48 h, after which annexin V/PI binding was measured by flow cytometry.
Measured normal live cells (living cells) of individual entries
REPORTED_METRIC: normal live cells (living cells) (%)

molecule="Cc1cn(-c2cc(NC(=O)c3cccc(C(=O)N4CCN(C(=O)c5cccc(F)c5)CC4)c3)cc(C(F)(F)F)c2)cn1 [Compound 15]" result_value=68.41
molecule="CNC(=O)c1cc(Oc2ccc(NC(=O)Nc3ccc(Cl)c(C(F)(F)F)c3)cc2)ccn1 [Sorafenib, reference compound]" result_value=42.32
molecule="Cc1cn(-c2cc(NC(=O)c3cccc(C(=O)N4CCN(C(=O)c5ccccc5F)CC4)c3)cc(C(F)(F)F)c2)cn1 [Compound 14]" result_value=65.68
molecule="Cc1cn(-c2cc(NC(=O)c3cccc(C(=O)Nc4cccc(C(F)(F)F)c4)c3)cc(C(F)(F)F)c2)cn1 [Compound 5]" result_value=48.87

* * *

Measured inhibition at 10 µM of individual entries
target: IGF1R (insulin-like growth factor 1 receptor) (Homo sapiens); construct: purchased Promega; experiment: ADP-Glo kinase assay, IGF1R; format: biochemical
Sequence (P08069 31-1367): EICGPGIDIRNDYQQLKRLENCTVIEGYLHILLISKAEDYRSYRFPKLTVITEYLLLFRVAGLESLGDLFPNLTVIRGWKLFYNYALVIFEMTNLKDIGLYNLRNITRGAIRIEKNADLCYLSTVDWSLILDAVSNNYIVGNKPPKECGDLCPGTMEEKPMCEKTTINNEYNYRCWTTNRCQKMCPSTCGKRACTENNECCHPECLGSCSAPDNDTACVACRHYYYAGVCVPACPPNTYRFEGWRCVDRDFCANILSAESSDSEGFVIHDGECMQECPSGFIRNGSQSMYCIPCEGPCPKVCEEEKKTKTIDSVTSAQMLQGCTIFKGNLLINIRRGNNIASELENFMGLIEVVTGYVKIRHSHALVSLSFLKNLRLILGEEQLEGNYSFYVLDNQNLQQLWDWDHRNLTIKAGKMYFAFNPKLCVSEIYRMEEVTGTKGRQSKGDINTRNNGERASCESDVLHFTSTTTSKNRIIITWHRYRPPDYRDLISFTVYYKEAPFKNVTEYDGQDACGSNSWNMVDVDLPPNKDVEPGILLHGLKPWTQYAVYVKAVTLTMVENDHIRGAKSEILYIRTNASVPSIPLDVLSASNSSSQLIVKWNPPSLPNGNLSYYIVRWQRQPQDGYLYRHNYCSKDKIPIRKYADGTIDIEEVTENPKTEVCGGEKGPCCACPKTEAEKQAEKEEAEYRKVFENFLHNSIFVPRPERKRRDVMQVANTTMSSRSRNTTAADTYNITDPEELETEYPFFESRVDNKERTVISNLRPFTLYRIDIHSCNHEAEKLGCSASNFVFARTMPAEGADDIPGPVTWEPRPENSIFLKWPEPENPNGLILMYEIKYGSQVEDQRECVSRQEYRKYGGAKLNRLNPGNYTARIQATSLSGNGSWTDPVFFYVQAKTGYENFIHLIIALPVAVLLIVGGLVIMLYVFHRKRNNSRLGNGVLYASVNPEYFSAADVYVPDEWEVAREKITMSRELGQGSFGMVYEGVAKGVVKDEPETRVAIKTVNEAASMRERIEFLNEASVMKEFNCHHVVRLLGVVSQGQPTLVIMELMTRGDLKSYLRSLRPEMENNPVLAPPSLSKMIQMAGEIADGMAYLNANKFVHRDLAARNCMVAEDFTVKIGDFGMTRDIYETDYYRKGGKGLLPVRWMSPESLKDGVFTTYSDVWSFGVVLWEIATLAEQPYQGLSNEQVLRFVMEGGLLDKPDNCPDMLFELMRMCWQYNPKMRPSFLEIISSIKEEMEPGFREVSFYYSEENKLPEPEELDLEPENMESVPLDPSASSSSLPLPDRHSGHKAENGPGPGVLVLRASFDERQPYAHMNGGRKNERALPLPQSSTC
REPORTED_METRIC: inhibition at 10 µM (%)

compound=Cc1cn(-c2cc(NC(=O)c3cccc(C(=O)Nc4cccc(C(F)(F)F)c4)c3)cc(C(F)(F)F)c2)cn1 result_value=0
compound=COc1ccc(C(=O)N2CCN(C(=O)c3ccc(C(=O)Nc4cccc(C(F)(F)F)c4)cc3)CC2)cc1 result_value=0
compound=Cc1cn(-c2cc(NC(=O)c3ccc(C(=O)Nc4cc([N+](=O)[O-])ccc4C)cc3)cc(C(F)(F)F)c2)cn1 result_value=0
compound=Cc1cn(-c2cc(NC(=O)c3cccc(C(=O)N4CCN(C(=O)c5ccccc5F)CC4)c3)cc(C(F)(F)F)c2)cn1 result_value=0
compound=O=C(Nc1cccc(C(F)(F)F)c1)c1cccc(C(=O)N2CCN(C(=O)c3cccc(F)c3)CC2)c1 result_value=0
compound=O=C(Nc1cccc(C(F)(F)F)c1)c1cccc(C(=O)N2CCN(C(=O)c3ccccc3F)CC2)c1 result_value=0
compound="CS(=O)(=O)CCNCc1ccc(-c2ccc3ncnc(Nc4ccc(OCc5cccc(F)c5)c(Cl)c4)c3c2)o1 [Lapatinib, reference compound]" result_value=0
compound=Cc1cn(-c2cc(NC(=O)c3cccc(C(=O)Nc4cc(-n5cnc(C)c5)cc(C(F)(F)F)c4)c3)cc(C(F)(F)F)c2)cn1 result_value=0
compound=Cc1cn(-c2cc(NC(=O)c3ccc(C(=O)Nc4cccc(C(F)(F)F)c4)cc3)cc(C(F)(F)F)c2)cn1 result_value=0

* * *

Measured inhibition at 10 µM of individual entries
molecular target: Aurora B (Homo sapiens, UniProt Q96GD4); construct: purchased Promega; assay: ADP-Glo kinase assay, Aurora B; type: biochemical
Sequence (Q96GD4 whole entry): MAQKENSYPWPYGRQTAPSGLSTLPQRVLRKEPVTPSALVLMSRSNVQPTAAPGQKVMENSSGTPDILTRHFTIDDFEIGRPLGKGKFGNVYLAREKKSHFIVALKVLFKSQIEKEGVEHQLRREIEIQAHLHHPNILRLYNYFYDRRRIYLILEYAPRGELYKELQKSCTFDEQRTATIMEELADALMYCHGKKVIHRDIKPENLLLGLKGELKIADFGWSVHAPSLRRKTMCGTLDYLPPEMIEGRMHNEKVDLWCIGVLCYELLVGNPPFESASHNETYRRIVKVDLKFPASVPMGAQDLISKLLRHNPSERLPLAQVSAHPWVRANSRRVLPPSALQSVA
REPORTED_METRIC: inhibition at 10 µM (%)

compound=O=C(Nc1cccc(C(F)(F)F)c1)c1cccc(C(=O)N2CCN(C(=O)c3ccccc3F)CC2)c1 units_symbol=% result_value=0
compound="CCN(CC)CCNC(=O)c1c(C)[nH]c(/C=C2\\C(=O)Nc3ccc(F)cc32)c1C [Sunit., sunitinib, reference compound]" units_symbol=% result_value=90
compound=O=C(Nc1cccc(C(F)(F)F)c1)c1cccc(C(=O)N2CCN(C(=O)c3cccc(F)c3)CC2)c1 units_symbol=% result_value=0
compound=Cc1cn(-c2cc(NC(=O)c3cccc(C(=O)N4CCN(C(=O)c5ccccc5F)CC4)c3)cc(C(F)(F)F)c2)cn1 units_symbol=% result_value=7

* * *

tested on: K562 (chronic myelogenous leukemia); experiment: MTT cell proliferation assay, K562; assay type: cell-based; details: Homo sapiens, K562, 72 h of exposition, read-out: Anti-proliferative activity IC50, K562
pIC50: −log10 of the molar value.
Measured pIC50 of individual entries
REPORTED_METRIC: pIC50

substance_smiles=Cc1cn(-c2cc(NC(=O)c3cccc(C(=O)Nc4cc(-n5cnc(C)c5)cc(C(F)(F)F)c4)c3)cc(C(F)(F)F)c2)cn1 experimental_system="K562 (chronic myelogenous leukemia)" relation_qualifier== result_value=4.59
substance_smiles=Cc1cn(-c2cc(NC(=O)c3ccc(C(=O)Nc4cccc(C(F)(F)F)c4)cc3)cc(C(F)(F)F)c2)cn1 experimental_system="K562 (chronic myelogenous leukemia)" relation_qualifier== result_value=4.81
substance_smiles=Cc1cn(-c2cc(NC(=O)c3ccc(C(=O)Nc4cc([N+](=O)[O-])ccc4C)cc3)cc(C(F)(F)F)c2)cn1 experimental_system="K562 (chronic myelogenous leukemia)" relation_qualifier== result_value=4.77
substance_smiles=O=C(Nc1cccc(C(F)(F)F)c1)c1cccc(C(=O)N2CCN(C(=O)c3cccc(F)c3)CC2)c1 experimental_system="K562 (chronic myelogenous leukemia)" relation_qualifier== result_value=4.68
substance_smiles=CNC(=O)c1cc(Oc2ccc(NC(=O)c3cccc(C(=O)Nc4cccc(C(F)(F)F)c4)c3)cc2)ccn1 experimental_system="K562 (chronic myelogenous leukemia)" relation_qualifier=< result_value=4.30
substance_smiles=CNC(=O)c1cc(Oc2ccc(NC(=O)c3ccc(C(=O)Nc4cccc(C(F)(F)F)c4)cc3)cc2)ccn1 experimental_system="K562 (chronic myelogenous leukemia)" relation_qualifier== result_value=4.57
substance_smiles=Cc1cn(-c2cc(NC(=O)c3cccc(C(=O)N4CCN(C(=O)c5cccc(F)c5)CC4)c3)cc(C(F)(F)F)c2)cn1 experimental_system="K562 (chronic myelogenous leukemia)" relation_qualifier== result_value=4.98
